# Target under test: Plasmodium falciparum protein kinase 6 (PK6, PF3D7_1337100)
# Assay overview: PfPK6 kinase inhibitors, biochemical, TCAMS library (AID 1159586)
# Measurement context: recombinant PfPK6, Kinase-Glo ATP depletion luminescence
pIC50: −log10 of the molar value.
Measurement kind: pIC50

Examples with answers:
1) NS(=O)(=O)c1cccc(Nc2nccc(-c3cnn4ncccc34)n2)c1	6.61
2) Cc1ccc(Nc2nc3cc(Nc4ccnc(Nc5cccc(CS(C)(=O)=O)c5)n4)ccc3o2)cc1	6.64
3) Cn1cnc2c(Nc3ccncc3)nc(-c3ccc4c(c3)OCO4)nc21	6.30
4) CCN(CC)CCCOc1ccc(Nc2nccc(-c3c(-c4cccc(NC(=O)c5c(F)cccc5F)c4)nn4ccccc34)n2)cc1F	6.52
5) CCN(CC)CCCNc1nccc(N(C)c2ccc(NC(=O)Nc3cc(C(F)(F)F)ccc3F)cc2)n1	6.15

[a] C(=N\Nc1nccc2sc(-c3ccccc3)cc12)/c1cccnc1
[b] COc1c(CN2CCCC2)cccc1-c1cc2c(-c3ccc(C(=O)O)c(C(C)C)c3)ccnc2[nH]1
[c] COc1ccc(Nc2ncc(Cl)c(Nc3cccnc3C(N)=O)n2)cc1N1CCN(C)CC1
[d] CNC(=O)c1ccccc1Nc1nc(Nc2ccc(N3CCN(C)CC3)nc2)ncc1C
Rank entries according to their pIC50, from the largest number down. Sort and list the labels as requested.
c, d, a, b
(c: 7.07, d: 6.84, a: 6.56, b: 6.27)

[a] CS(=O)(=O)Cc1ccc(Nc2nccc(-c3c(-c4cccc(NC(=O)c5c(F)cccc5F)c4)nn4ccccc34)n2)cc1
[b] CN(c1ccc(NC(=O)Nc2cc(C(F)(F)F)ccc2F)cc1)c1ccnc(NCCN2CCOCC2)n1
Smaller pIC50 value? Options are a and b Pick one and reply with its label.
b

[P] N=C(N)c1ccc(Nc2nccc(Nc3nc(-c4ccccc4)cs3)n2)cc1
[Q] COc1ccc(Nc2ncc(C#N)c(Nc3ccccc3C(N)=O)n2)cc1N1CCN(C)CC1
[R] CN(C)Cc1cccc(-c2cc3c(-c4cnn(C)c4)c(Cl)cnc3[nH]2)c1
# sort list by recorded pIC50, greatest to least State the ranking by listing the labels in the requested order.
Q, R, P
(Q: 7.21, R: 6.89, P: 6.38)

----------
Reported values of IC50 for individual entries
# Target under test: UniProt Q8IDW1
# Sequence (Q8IDW1 1-305): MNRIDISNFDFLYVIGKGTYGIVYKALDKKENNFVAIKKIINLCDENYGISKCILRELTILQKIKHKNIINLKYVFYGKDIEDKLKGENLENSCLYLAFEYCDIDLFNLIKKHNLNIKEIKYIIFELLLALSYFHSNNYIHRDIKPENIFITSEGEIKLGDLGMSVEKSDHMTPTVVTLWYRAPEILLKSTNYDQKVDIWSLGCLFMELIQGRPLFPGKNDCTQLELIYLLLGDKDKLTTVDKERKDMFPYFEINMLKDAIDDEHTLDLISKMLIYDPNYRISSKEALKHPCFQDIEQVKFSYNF
# Assay overview: PfPK6 kinase inhibitors, biochemical, TCAMS library (AID 1159586)
# Measurement context: recombinant PfPK6, Kinase-Glo ATP depletion luminescence

1) CN1CCC(NC(=O)c2cccc(Nc3cc(Nc4cccc(Br)c4)ncn3)c2)CC1	602 nM

Fill in IC50 for record COc1ccc(Nc2ncc3c(-c4cccc(NC(=O)Cc5ccc(O)cc5)c4)c[nH]c3n2)cc1OC
445 nM

Hello, please tell me recorded IC50 for this one: CCN(CC)CCOc1ccc(Nc2ncc3cc(-c4c(Cl)cccc4Cl)c(=O)n(C)c3n2)cc1
350 nM

Supply measured IC50 of C#CCNC(=O)c1ccc(-c2ccnc(Nc3cccc(CCCN4CCOCC4)c3)n2)s1 in your reply.
181 nM

Tell us which IC50 value is on record for Cn1c(=O)c(-c2c(Cl)cccc2Cl)cc2cnc(Nc3ccc(N4CCOCC4)cc3)nc21
145 nM

Note down IC50 recorded for CN(C)CC(O)COc1ccc(Nc2ncc([N+](=O)[O-])c(Nc3ccccc3O)n2)cc1 (stereo not drawn)
67 nM

Please supply the value of reported IC50 for the item CNC(=O)c1ccccc1Nc1nc(Nc2ccc(N3CCOCC3)cc2)ncc1Cl
42 nM

Specify measured IC50 for Cc1ccc(S(=O)(=O)Nc2ccc(Nc3nccc(Nc4cccc5[nH]ncc45)n3)cc2)cc1 .
823 nM
